# test_system: complex I (mitochondrial electron transport system; multi-subunit)
# Construct: native complex I in freeze-fractured fragments of isolated skeletal muscle mitochondria
# assay_procedure: NADH oxidation (complex I activity) assay in mitochondrial fragments, dose-response
readout_kind: pIC50
The quantity pIC50 is defined as the negative base-10 logarithm of the molar concentration.

Give reported pIC50 value for CC(Sc1nc2ccccc2[nH]1)C(=O)N/N=C/c1cc(Br)ccc1O (racemic)
5.43
